Origin of measurements: the DeepSol protein solubility set

method_summary: soluble on expression in E. coli; label from the status in PepcDB or PDB records
property_name: soluble on expression in E. coli

Worked cases, answers included:
[[record]]
chain = "MGSDKIHHHHHHMKEDSSLTPQEVADLLKITKYTVYEMVKRGELPAYRIGRKIRIEQRDVDAYIKQGKKLKYKDIDTLEASPRTQAARQDYLSTSPGLVICGQDLLLDILGRHLENHSQGCRAFRHNIGSFAGLLQLYQGESDMAGVHLWDSDSESYNIPYVRRMVPGIPTLIIHLAMRQQGFYVARSNPLGIKGWADLTIPGLRFINREPGCGTRVLLDEHLYQMKLDRRKINGYEREETSHLAVASAVARGTADLALGNEKAALQVRGIEFIPLQKERYELVIRKEDLDKAEIRAVLDILNSAAFKSELEGLGDYCLEETGRIVAEI"
property_name = "soluble on expression in E. coli"
endpoint_value = "not soluble"

[[record]]
chain = "MSLSNLPADSFRVGVSEDRNRRCRRTMEDAHSFVYDFAGVKGQGYFAVFDGHAGKHAAEWCGQNFHEYLLDGLLIEPDTPVPDLMNKTFHLVDKRLSHLAHAAGTSSGCTAVTAFLRVEEMDDNDSFRKGFTNPGLQPRGLWEGKGEDELESQTSLQPSSRRSSMGGGTGGQMGGASAPGVNGRTGSLARRLSSKKIRDFVKGLTGGMEKNFDEAITEDEGVISAADGTRVEAIEPKSEKGVRRVLYTANVGDARAVLCRGGKAVRLTYDHKGSDAQEAKRITDAGGFVMNNRVNGVLAVTRSLGDASMKEFVVGAPYTTETTLDEQDEFLIVACDGLWDVCSDQEAVEIVHLVTDPQEASKRLLDHAMSNFSTDNLSVMVVRFNHEGHHHHHH"
property_name = "soluble on expression in E. coli"
endpoint_value = "soluble"

[[record]]
chain = "MFRNAAELVAQAKEQNVKIAEIMIQCEMETRSISREEVIAGMEKNLVVMEQAVERGIRGVKSPTGLTGGDAVKVQAYMKSGKGLSGDTILDAVSKAVATNEVNAAMGIICATPTAGSAGTVPGVLFALREKLQPTREEMIEFLFTAGAFGMVVANNACISGAAGGCQAEVGSASGMAAAAAVEMAGGTQEQAATAMAISLKNMLGLVCDPVAGLVEVPCVKRNAAGAANAMISADLALAGVTSTIPCDEVIEAMFRIGQTMPVALRETAEGGLAATPTGRRLQEEIFGKTNN"
property_name = "soluble on expression in E. coli"
endpoint_value = "not soluble"

[[record]]
chain = "MGSDKIHHHHHHMKRAVGDLIEETMDIVLANPRGFCAGVDRAIIIVEQALEKFGAPIYVRHEVVHNKFVVDDLKKKGAIFVEELDEVPAGNTVIFSAHGVSKDVRAEAEARGLQVFDATCPLVTKVHLEVAKMRASGKEIIMIGHKGHPEVEGTMGQAEGGMYLVESPEDVAMLEVKDPSQLAYVTQTTLSIDDAAAIVSALKAKFPEITPPRSDSICYATQNRQDAVKVMARDCDLVIVVGSPNSSNSNRLREVAQNQGVESYMVDNASFLDPAWIVGKKRIGVSAGASAPEVLVQEVINKLRALGAADVQELNGVVENVVFKIPRNLAEA"
property_name = "soluble on expression in E. coli"
endpoint_value = "not soluble"


// next entry
query: Provide measured soluble on expression in E. coli value, entry: MGDIMLIILTGLPGVGKSTFSKNLAKILSKNNIDVIVLGSDLIRESFPVWKEKYEEFIKKSTYRLIDSALKNYWVIVDDTNYYNSMRRDLINIAKKYNKNYAIIYLKASLDVLIRRNIERGEKIPNEVIKKMYEKFDEPGKKYKWDEPFLIIDTTKDIDFNEIAKKLIEKSKEIPKFYVLEENKNKNNNISDKIDKETRKIVSEYIKSKKLDKDKIKEVVELRKEFLKKIKKMEEVDADRVLKEFKDLLNSYLEHHHHHH
result: soluble
